Value source: ChEMBL document CHEMBL1201862

- Test system: BT-549
- assay.summary: NCI tumour cell line growth inhibition, 48 h
Calls of active or inactive are those of the source. Rule as the data show it: active = GI50 up to about 1.1 µM and inactive = higher.
As shown below, each of these compounds has a reported GI50 value.
measured.parameter: GI50

CCSc1cc(=O)n(C)c(=O)n1C
> 100 µM (inactive)
Cc1ccc(C2(c3ccc(C)cc3)SC(=C(C#N)C#N)c3ccccc32)cc1
> 100 µM (inactive)
CC1CC2CCCC(=O)C2=C(O)O1 (stereo not given)
81.5 µM (inactive)
CC(C)CC(=O)OC[n+]1ccc(-c2c(COC(=O)NC(C)C)c(COC(=O)NC(C)C)c3n2CCC3)cc1
> 100 µM (inactive)
CC1(C)NC2C(=O)c3c([nH]c4ccccc34)[C@]3(C)CCC1CC23 (stereo not given in full)
> 100 µM (inactive)
